Test system: LXFL 529 NSCLC
assay-name: NCI tumour cell line growth inhibition, 48 h
property-name: TGI

Short answer for `CN(C(=O)c1ccco1)C(=S)N1CCN(c2ccccn2)CC1` : TGI was > 100 µM

Quick note, TGI for `CCc1cccc(C)c1NC(=S)NC(=O)c1ccccc1C(=O)NC(=S)Nc1c(C)cccc1CC` landed at > 100 µM

Entry `CCOCc1cc(=O)c2c(OC)cc3c(c2o1)CCC(C)(C)O3` — recorded TGI = > 100 µM

Short answer for COc1cccc2c1C(=O)c1c(O)c3c(c(O)c1C2=O)C[C@@](O)(C(=O)CO)CC3OC1CC(NCCCC(OC(C)=O)OC(C)=O)C(O)C(C)O1 (stereo not given in full) : TGI was 0.00872 µM

The recorded TGI for entry CCOC1CC2OC(=O)C1C=C2C(=O)OC (stereo not given) equals 36.1 µM

----------
Tested on: NCI-H522 lung
assay-name: NCI tumour cell line growth inhibition, 48 h
property-name: TGI

For reference, reported TGI for `CCCCC(=O)Nc1ccc2c(C)cc(-c3ccc(-c4cc(-c5ccc(C)cc5)cc(-c5ccc(-c6cc(C)c7ccc(NC(=O)CCCC)nc7n6)cc5)n4)cc3)nc2n1` stands at > 100 µM

TGI in this record for `CC(=O)Nc1ccc(Sc2nnc(NC(C)=O)s2)cc1` : > 100 µM

Recorded result, `C/C(=N\NC(=O)CC(=O)N(C(=O)c1ccc(Cl)cc1)c1ccc(C)cc1)c1ccccc1O` , TGI: > 100 µM

Record Cc1cc(Cl)ccc1NC(=O)C(=O)C(C(=O)c1ccccc1)C1OC(=O)c2ccccc21 (stereo not given) , field TGI: > 100 µM

Field TGI (entry CSCCC(C(=O)O)N(CC1(O)OCC(O)C(O)C1O)N=O (stereo not given) ) reads > 100 µM

molecule CCOC(=O)CNc1nnnn1C1OC(CO)C(O)C1O (stereo not given) , TGI observed: > 100 µM

The recorded TGI for COC(=O)C(=O)C(C(=O)C(=O)Nc1cc(C)ccc1C)c1nc2ccc(C(=O)c3ccccc3)cc2[nH]c1=O (stereo not given) is > 100 µM

Lab note: `Cc1ccc(N=C2C(c3ccccc3)=C(SC3=C(c4ccccc4)C(=Nc4ccc(C)cc4)c4ccccc43)c3ccccc32)cc1` gave TGI of > 100 µM

Recorded result, `O=c1oc2ccc3ccccc3c2cc1-c1nc2ccc([N+](=O)[O-])cc2o1` , TGI: > 100 µM

// TGI lookup, molecule = `O=C(O[C@H]1CCN2C[C@H]3C[C@H](CN4C(=O)CCC[C@H]34)[C@@H]2C1)c1ccc(O)cc1` , result: > 100 µM

Briefly, TGI measured for `O=c1c2cc(I)ccc2nc(-c2cccs2)n1/N=C/c1ccccc1` : > 100 µM

Data point: `COc1cc2ccc1OCc1cccc(n1)COc1ccc(cc1OC)C=NCCNCCN=C2` ; TGI = > 100 µM

// recorded TGI for COc1ccc2c(c1OC(C)=O)C1=CC(=O)CCC13CCNC3C2 (stereo not given) : > 100 µM

The reported value for `COc1cc(/C=C/C(=O)c2c(C)nc3ccccc3c2C)ccc1OCCCN1CCN(C(=O)c2ccco2)CC1` in terms of TGI is 23.9 µM

Record summary for CC(O)[C@@]1(c2ccccc2)CC2(CCN(C)CC2)O[C@H]1C (stereo not given in full) : reported TGI = > 100 µM

Entry under test: `COc1cc2c(cc1C)NC(=O)/C2=C\c1c[nH]c2ccccc12` . Its TGI was 28.9 µM

Record CC1CN=C(Nc2ccc(F)c(Cl)c2)S1 (stereo not given) . Reported TGI: > 100 µM

// TGI lookup, molecule = `Cc1cc(Cl)cc(Cc2cc(Cl)cc(C)c2O)c1O` , result: 6.65 µM

# TGI (molecule: `C1CN2CCNCCN(CCN1)CC2` ) is > 100 µM

get_value(item= `O=C(NCCCN1CCN(CCCNC(=O)Nc2cccc3ccccc23)CC1)Nc1cccc2ccccc12` , readout=TGI) returns 33.4 µM

Quick note, TGI for `O=[N+]([O-])c1ccc(Sc2ccncn2)c([N+](=O)[O-])c1` landed at 0.987 µM

Input `CC1(C)OC(=O)C(Cc2ccccc2)(Cc2ccccc2)C(=O)O1` . Output TGI: > 100 µM

TGI measured on S=C=NC1CCC(c2cc3ccccc3s2)(N2CCCCC2)CC1 (stereo not given) = 3.23 µM

// TGI lookup, molecule = `CSc1c(C#N)c(S)[nH]c(=O)c1C#N` , result: > 100 µM

TGI reported for this molecule `COc1ccc(-c2cc(=O)c3c(O)cc(O)cc3o2)c(OC)c1OC` : > 100 µM

Lab note: `S=C(N1CCN(c2ccccc2)CC1)N1CCN(c2ccccc2)CC1` gave TGI of > 100 µM

Item: `COc1cc(/C=N/NC2=NCCCCN2)ccc1O` | TGI: > 100 µM

TGI for `N#Cc1c(O)c2ccccc2[nH]c1=O` is > 100 µM

TGI in this record for CCOC(=O)c1cc(C2CCN(Cc3ccccc3)C2=S)c(C(=O)C=[N+]=[N-])[nH]1 (stereo not given) : 46.7 µM

For reference, reported TGI for `CN(C)CCNC(=O)NC[C@H]1CC[C@@H]2[C@H](O1)c1cc(C(F)(F)F)ccc1N[C@H]2c1ccccc1` stands at 0.303 µM

Record `COC(=O)/C(C#N)=C(\N)c1c(C)c2ccccc2oc1=N` , field TGI: > 100 µM

Noted for `CCCN1CCC(c2ccc(Nc3nc(Nc4cc(F)ccc4C(N)=O)c4cc[nH]c4n3)c(OC)c2)CC1` : its TGI reads 6.69 µM

The molecule identified as `COc1ccc(/C=C2\c3cc(OC)c(OC)c(OC)c3CC[C@@H]2O)cc1F` registered its TGI at 0.639 µM

Summary for this molecule, `Cc1ccc2nc(NC(=O)/C(=N\NC(=S)NN)C3C(=O)NC(=S)NC3=O)sc2c1` : TGI is > 100 µM

Just so you know, measured TGI for `O=c1c2ccccc2[nH]c2c(Cl)cc(Cl)c(N3CCCCC3)c12` came out at 64.3 µM

GET /value?item= COC1CC(O[C@H]2CC[C@@]3(C)[C@@H](CC[C@]4(O)[C@@H]3CC[C@]3(C)[C@@H](C(C)=O)[C@H](OC(=O)CC(C)C)[C@@H](OC(=O)c5ccccc5)[C@@]34O)C2)OC(C)C1OC1CC(OC)C(OC2OC(C)C(O)C(OC)C2O)C(C)O1 (stereo not given in full) &field=TGI returns > 25 µM

Value of TGI reported for the molecule O=C(O)CCC(C(=O)O)N1C(=O)C2C3CCC(C3)C2C1=O (stereo not given) is > 100 µM

Recorded result, CCCNC(=O)N1CC(CN2CCN(c3ccccc3)CC2)O/C1=N/C(=O)Nc1ccccc1 (stereo not given) , TGI: > 100 µM

Sample `CCCCCCCCCCCCCB(O)O` ; TGI observed: > 100 µM

The recorded TGI for `O=C1/C(=C/c2ccc(Cl)cc2)CSC/C1=C\c1ccc(Cl)cc1` is 15.2 µM

----------
System: IGROV1 ovarian
assay-name: NCI tumour cell line growth inhibition, 48 h
Answer each item with its documented TGI.

Reported TGI for `Cc1nccc2c3ccc(OCc4cn(-c5ccc(Cl)cc5)nn4)cc3n(CC(C)C)c12` was 18.7 µM

TGI in this record for `CCOC(=O)C(=O)NC12CC3CC(CC(C3)C1)C2` : > 100 µM

GET /value?item= `COC(=O)/C(C#N)=C(\N)c1c(C)c2ccccc2oc1=N` &field=TGI returns > 100 µM

Sample `COc1ccc(/C=C2\c3cc(OC)c(OC)c(OC)c3CC[C@@H]2O)cc1F` ; TGI observed: > 100 µM

// TGI value for `O=c1ccnc2ccc3n[nH][nH]c3c12` : > 100 µM

The value of TGI measured for the compound O=C(O)CCC(C(=O)O)N1C(=O)C2C3CCC(C3)C2C1=O (stereo unspecified) turned out to be > 100 µM

The value of TGI measured for the compound Cc1ccccc1C1CC(c2ccccc2)=NO1 (stereo unspecified) turned out to be > 100 µM

In plain terms, `Cn1c2ccccc2c2c(=O)n(CCCC(=O)OC(=NC3CCCCC3)NC3CCCCC3)c3c(-c4ccccc4)nnn3c21` has a documented TGI of 94.4 µM

For this compound ( `O=C1CCCc2ccc3c(c21)CC1(Cc2ccccc2C1)C3` ), measured TGI is > 100 µM

Record summary for COC(=O)C(/C(=N\NC(N)=S)C(=O)Nc1ccccc1[N+](=O)[O-])c1cnc2ccccc2n1 (stereo unspecified) : reported TGI = > 100 µM

Short answer for COC(=O)C1C=CCON2CCc3c(n(S(=O)(=O)c4ccccc4)c4ccccc34)C12 (stereo unspecified) : TGI was > 68.2 µM

// TGI lookup, compound = `CCOC(=O)C(=O)Nc1ccccc1C(C)C` , result: > 100 µM

Query `CCN=C(C#N)NCC` yields TGI of > 100 µM

Recorded result, `CCOCc1cc(=O)c2c(OC)cc3c(c2o1)CCC(C)(C)O3` , TGI: > 100 µM

Lab note: `CN1CCN(Cc2cc(NC(=O)c3cccc(C#Cc4cccc5[nH]nc(N)c45)c3)cc(C(F)(F)F)c2)CC1` gave TGI of 4.07 µM

The reported value for `FC(F)(F)c1cc(Nc2ccc3cc(OCCCN4CCOCC4)ccc3n2)ccc1Cl` in terms of TGI is 7.49 µM

Lab book: TGI of `COc1ccc(/C(=N\Nc2ccccn2)c2ccccn2)cc1` noted as 7.89 µM

// `COc1cc(/C=N/NC2=NCCCCN2)ccc1O` : TGI value = > 100 µM

The recorded TGI for C/C(Cc1ccc2c(c1)OCO2)=N\NC(=O)C(C)Sc1nnc(SC(C)C(=O)N/N=C(\C)Cc2ccc3c(c2)OCO3)s1 (stereo unspecified) is > 100 µM

// field: TGI; key: CCOC(=O)CNc1nnnn1C1OC(CO)C(O)C1O (stereo unspecified) ; value = > 100 µM

Reported TGI ( `Cc1cc(Cl)cc(Cc2cc(Cl)cc(C)c2O)c1O` ) = 29.5 µM
